- Test system: KB-3-1
- experimental.details: Cytotoxic Profiling of Annotated Libraries Using Quantitative High-Throughput Screening (AID 1296008); further: nearly all actives have a fitted effect of over 60% in size
- assay.context: Five cell lines viability, CellTiter-Glo ATP luminescence, 48-72 h
Records with an inconclusive call do not appear. Activity calls are given as the source filed them. The call rests on the fitted dose curve; in most records, active means well fitted inhibition curve with a large enough effect; inconclusive means small, poorly fitted or top-dose-only effect; inactive means flat fitted curve, though single readings scatter.
Response enum: 1 for active, 0 for inactive

The examples below pair each entry with its known result.
CC(C)[C@H](N)C(=O)OCCOCn1cnc2c(=O)[nH]c(N)nc21 ... 0
CN(c1nccc(=O)[nH]1)C1CCN(c2nc3ccccc3n2Cc2ccc(F)cc2)CC1 ... 0
CCCS(=O)c1ccc2nc(NC(=O)OC)[nH]c2c1 (stereo not drawn) ... 1
Cc1cc2cc3c(C)cc(=O)oc3c(C)c2o1 ... 0
CCC(C)(Oc1ccc(C2(c3ccc(OC(C)(CC)C(=O)O)cc3)CCCCC2)cc1)C(=O)O (stereo not drawn) ... 0

Lookup: Could you check what this test reported for Nc1ccn([C@@H]2O[C@H](CO)[C@@H](O)C2O)c(=O)n1 (stereo partly drawn) ?
Found: 0

Lookup: Could you check what this test reported for COc1cc(C(C)=O)ccc1OCCCN1CCC(c2noc3cc(F)ccc23)CC1 ?
Found: 0

Lookup: Could you check what this test reported for COCCCOc1ccnc(CS(=O)c2nc3ccccc3[nH]2)c1C (stereo not drawn) ?
Found: 0

Lookup: Could you check what this test reported for N[C@@H](Cc1cc(I)c(Oc2cc(I)c(O)c(I)c2)c(I)c1)C(=O)O ?
Found: 0

Lookup: Could you check what this test reported for Oc1ccc(OCc2ccccc2)cc1 ?
Found: 0

Lookup: Could you check what this test reported for CN(C)CCc1c[nH]c2ccc(Cn3cncn3)cc12 ?
Found: 0

Lookup: Could you check what this test reported for O=C1c2c(O)cc(O)cc2OC(c2ccc(O)c(O)c2)C1O (stereo not drawn) ?
Found: 0

Lookup: Could you check what this test reported for c1cnc2cc3c(cc2n1)C1CNCC3C1 ?
Found: 0

* * *

- experimental.details: Quantitative High-Throughput drug screen in 47 multiple myeloma cell lines against the NCATS MIPE library collection: KMS20_JCRB cell viability assay (AID 1918973); further: nearly all actives have a fitted effect of over 45% in size
- assay.context: CellTiter-Glo ATP, 48 h; series mostly up to 45.8 µM
Records with an inconclusive call do not appear. Activity calls are given as the source filed them. Calls follow the shape of the dose curve; as a rule, active = well fitted cell-killing curve with a large enough effect; inconclusive = small, poorly fitted or top-dose-only effect, or effect the other way; inactive = no such curve, though single readings can be large or run the other way.
Response enum: y (active), n (inactive)

The examples below pair each entry with its known result.
COC(=O)C1=C(C)NC(C)=C(C(=O)OC(C)C)C1c1cccc2nonc12 (stereo unspecified) ... y
O=C(c1ccccc1)c1ccc2n1CCC2C(=O)O (stereo unspecified) ... y
Cc1cccc(CN2CCN(C(c3ccccc3)c3ccc(Cl)cc3)CC2)c1 (stereo unspecified) ... y
O=C(O)c1cccnc1Nc1cccc(C(F)(F)F)c1 ... n

Lookup: Could you check what this test reported for COc1cc(C(C)=O)ccc1OCCCN1CCC(c2noc3cc(F)ccc23)CC1 ?
Found: y

Lookup: Could you check what this test reported for Cc1nc(-c2ccc(OCC(C)C)c(C#N)c2)sc1C(=O)O ?
Found: n

Lookup: Could you check what this test reported for O=P(O)(O)C(O)(Cn1ccnc1)P(=O)(O)O ?
Found: n

Lookup: Could you check what this test reported for COc1cc(Nc2c(C#N)cnc3cc(OCCCN4CCN(C)CC4)c(OC)cc23)c(Cl)cc1Cl ?
Found: y

Lookup: Could you check what this test reported for c1ccc2[nH]c(-c3cscn3)nc2c1 ?
Found: n

Lookup: Could you check what this test reported for Cc1nc(Nc2ncc(C(=O)Nc3c(C)cccc3Cl)s2)cc(N2CCN(CCO)CC2)n1 ?
Found: y

Lookup: Could you check what this test reported for CCOC(=O)c1c(C)n(C)c2ccc(O)cc12 ?
Found: n

* * *

Listing of recorded max response by entry.
- Tested on: HEK293
- experimental.details: Cytotoxic Profiling of Annotated Libraries Using Quantitative High-Throughput Screening (AID 1296008); further: nearly all actives have a fitted effect of over 60% in size; on max response: on the % scale 0 is the no-effect control and ±100 the full control effect
- assay.context: Five cell lines viability, CellTiter-Glo ATP luminescence, 48-72 h; stronger effect = lower value
Results filed as inconclusive are left out.
Write the answer as a number in %, unit excluded.

Below are worked cases with known answers.
O=C(O)c1cn(-c2ccc(F)cc2)c2cc(N3CCNCC3)c(F)cc2c1=O ... -4.73
CCCCCCCCCCCCCCCCCCCCCCO ... 1.6
NC(=NCc1ccccc1)NC(=O)c1nc(Cl)c(N)nc1N ... -5.25
Cc1nc2n(c(=O)c1CCN1CCC(c3noc4cc(F)ccc34)CC1)CCCC2 ... -10.6
Oc1ccc2ccccc2c1SSc1c(O)ccc2ccccc12 ... -1.68
Cc1cccc(-c2[nH]ncc2-c2ccc3ncccc3n2)n1 ... -26.8
O=C(CCc1ccc(O)cc1)c1c(O)cc(O)cc1O ... 0.264
CS(=O)(=O)OCCCCOS(C)(=O)=O ... -5.94
CN(C)CCCC1(c2ccc(F)cc2)OCc2cc(C#N)ccc21 (stereo not drawn) ... -24.9
Cc1ncc([N+](=O)[O-])n1CC(C)O (stereo not drawn) ... 3.63

Documented max response of CC(C)(S)[C@@H](N)C(=O)O : 2.4

Documented max response of O=C(CS(=O)Cc1ccco1)NCC=CCOc1cc(CN2CCCCC2)ccn1 (stereo not drawn) : -11.3

Documented max response of CC(=O)Nc1ccc(O)cc1 : 1.48

* * *

- experimental.details: Quantitative High-Throughput drug screen in 47 multiple myeloma cell lines against the NCATS MIPE library collection: PE2_PLB cell viability assay (AID 1919869); further: nearly all actives have a fitted effect of over 35% in size
- assay.context: PE2_PLB myeloma cells viability, ATP luminescence, 48 h; series mostly up to 45.8 µM
Results filed as inconclusive are left out. Calls of active or inactive are those of the source. Calls follow the shape of the dose curve; as a rule, active = well fitted cell-killing curve with a large enough effect; inconclusive = small, poorly fitted or top-dose-only effect, or effect the other way; inactive = no such curve, though single readings can be large or run the other way.
Response enum: yes = active, no = inactive

The examples below pair each entry with its known result.
Cc1nc(-c2ccc(OCC(C)C)c(C#N)c2)sc1C(=O)O ... no
Cc1cc2cc3c(C)cc(=O)oc3c(C)c2o1 ... yes
CN(C)CCCC1(c2ccc(F)cc2)OCc2cc(C#N)ccc21 (stereo not drawn) ... no
NS(=O)(=O)c1cc(C(=O)O)c(NCc2ccco2)cc1Cl ... no
O=c1oc2cc(O)ccc2s1 ... no
Nc1ccn([C@@H]2O[C@H](CO)[C@@H](O)C2O)c(=O)n1 (stereo partly drawn) ... no

Next item in the queue.
Lookup: Could you check what this test reported for COC(=O)N[C@H](C(=O)N[C@@H](Cc1ccccc1)[C@@H](O)CN(Cc1ccc(-c2ccccn2)cc1)NC(=O)[C@@H](NC(=O)OC)C(C)(C)C)C(C)(C)C ?
Found: no

* * *

Listing of recorded cell viability, % of control (lower = more cytotoxic) by entry.
- experimental.details: High-throughput drug toxicity screening in the BPDCN cell line Gen2.2 (AID 1224824);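 further: cells exposed to compounds for 48 h before reading; 100% = DMSO and 0% = bortezomib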
- assay.context: Gen2.2 BPDCN cells; at 45.8 µM (top of the series) unless noted
Write the answer as a number in %, unit excluded.

O=C(NCC1CCCCN1)c1cc(OCC(F)(F)F)ccc1OCC(F)(F)F (stereo unspecified) ... 42.6

Turning now to a further compound:
Documented cell viability, % of control (lower = more cytotoxic) of CCN(CC)C(=S)SSC(=S)N(CC)CC : 6.77

* * *

- experimental.details: qHTS of pediatric cancer cell lines to identify multiple opportunities for drug repurposing: Confirmatory screen for Saos-2 cells (AID 1347127); further: nearly all actives have a fitted effect of over 60% in size
- assay.context: Saos-2 osteosarcoma cell viability; series mostly up to 45.9 µM
Inconclusive results are not listed. The source made the active and inactive calls. Calls follow the shape of the dose curve; as a rule, active = well fitted cell-killing curve with a large enough effect; inconclusive = small, poorly fitted or top-dose-only effect, or effect the other way; inactive = no such curve, though single readings can be large or run the other way.
Response enum: 1 for active, -1 for inactive

Nc1ncn([C@H]2C[C@H](O)[C@@H](CO)O2)c(=O)n1 ... -1

Lookup: Could you check what this test reported for CCN(CC)C(=S)SSC(=S)N(CC)CC ?
Found: 1

Lookup: Could you check what this test reported for CN(C)c1ccc2nc3ccc(=[N+](C)C)cc-3sc2c1 ?
Found: 1

* * *

- experimental.details: Quantitative High-Throughput drug screen in 47 multiple myeloma cell lines against the NCATS MIPE library collection: NCIH929_DSMZ cell viability assay (AID 1918978); further: nearly all actives have a fitted effect of over 35% in size
- assay.context: NCI-H929 myeloma viability, CellTiter-Glo ATP, 48 h; series mostly up to 45.8 µM
Inconclusive results are not listed. Active and inactive are the calls of the source. Calls follow the shape of the dose curve; as a rule, active = well fitted cell-killing curve with a large enough effect; inconclusive = small, poorly fitted or top-dose-only effect; inactive = no such curve, though single readings can be large or run the other way. Peptide text beside a SMILES is read from it.
Response enum: active, inactive

CCOc1cc(CC(=O)N[C@@H](CC(C)C)c2ccccc2N2CCCCC2)ccc1C(=O)O ... inactive
CCOC(=O)C1=C(O)C(=O)N(Cc2ccccc2)C1 ... inactive
NCCCCNCCCN ... active

Lookup: Could you check what this test reported for CN(C)c1ccc2nc3ccc(=[N+](C)C)cc-3sc2c1 ?
Found: active

Lookup: Could you check what this test reported for COC(=O)[C@H](Cc1ccccc1)NC(=O)[C@@H](N)CC(=O)O (H-Asp-Phe-OMe) ?
Found: inactive

Lookup: Could you check what this test reported for NS(=O)(=O)c1cc(C(=O)O)c(NCc2ccco2)cc1Cl ?
Found: inactive

Lookup: Could you check what this test reported for Nc1ccc(S(N)(=O)=O)cc1 ?
Found: inactive

Lookup: Could you check what this test reported for Cc1cccc(-c2[nH]ncc2-c2ccc3ncccc3n2)n1 ?
Found: inactive

Lookup: Could you check what this test reported for CC(C)c1ccc2c(c1)c(SC(C)(C)C)c(CC(C)(C)C(=O)O)n2Cc1ccc(Cl)cc1 ?
Found: active

Lookup: Could you check what this test reported for c1ccc2[nH]c(-c3cscn3)nc2c1 ?
Found: inactive

Lookup: Could you check what this test reported for CC(C)c1ccc2oc3nc(N)c(C(=O)O)cc3c(=O)c2c1 ?
Found: inactive

Lookup: Could you check what this test reported for Cc1cc2c(s1)Nc1ccccc1N=C2N1CCN(C)CC1 ?
Found: inactive
